Target: T1, SPOP–MATH (human SPOP residues 28–166) (human, UniProt O43791 28-166)
T1 construct: N-terminal Gly–Pro–Gly cloning artifact left after 3C protease; speckle-type POZ protein (SPOP), human, MATH domain, residues 28-166; Uniformly 15N (or 13C,15N) enriched for the NMR experiments in which it is the observed protein; also called monomeric SPOP–MATH; ^15N–SPOP–MATH; source: E. coli BL-21(DE3), purified (Ni-NTA, 3C protease, second Ni-NTA, Sephacryl S100 gel filtration); not shown: …
T1 sequence (O43791 other isoform, or with tags, fused parts or gaps): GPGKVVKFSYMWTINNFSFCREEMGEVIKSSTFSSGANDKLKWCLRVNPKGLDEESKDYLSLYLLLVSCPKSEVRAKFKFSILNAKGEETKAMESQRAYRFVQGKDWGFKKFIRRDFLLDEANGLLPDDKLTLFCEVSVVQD
Assay: fluorescence polarisation; competition fluorescence anisotropy: competitor ~0.01 μM to ~2 mM against 40 nM f-Puc and 6 μM SPOP–MATH; 50 mM sodium phosphate pH 6.5, 50 mM NaCl, 5 mM DTT, 1% BSA, 0.01% Triton X-100; complete competitive binding fit
Conditions: both partners purified
pKd: −log10 of the molar value.
readout type: pKd

# binder, result
data = [
    ("EQDCAVTSGEE (human Pdx1 residues 224-234, shorter SBM1 peptide used for fluorescence anisotropy; source: synthetic peptide (Tufts University Core Facility, HPLC purified)) [Pdx1–SBM1f peptide (Pdx1 residues 224–234)]", 3.85),
]
